assayedTarget: PDE1C (Homo sapiens (Human), UniProt Q14123)
Sequence (Q14123 whole entry): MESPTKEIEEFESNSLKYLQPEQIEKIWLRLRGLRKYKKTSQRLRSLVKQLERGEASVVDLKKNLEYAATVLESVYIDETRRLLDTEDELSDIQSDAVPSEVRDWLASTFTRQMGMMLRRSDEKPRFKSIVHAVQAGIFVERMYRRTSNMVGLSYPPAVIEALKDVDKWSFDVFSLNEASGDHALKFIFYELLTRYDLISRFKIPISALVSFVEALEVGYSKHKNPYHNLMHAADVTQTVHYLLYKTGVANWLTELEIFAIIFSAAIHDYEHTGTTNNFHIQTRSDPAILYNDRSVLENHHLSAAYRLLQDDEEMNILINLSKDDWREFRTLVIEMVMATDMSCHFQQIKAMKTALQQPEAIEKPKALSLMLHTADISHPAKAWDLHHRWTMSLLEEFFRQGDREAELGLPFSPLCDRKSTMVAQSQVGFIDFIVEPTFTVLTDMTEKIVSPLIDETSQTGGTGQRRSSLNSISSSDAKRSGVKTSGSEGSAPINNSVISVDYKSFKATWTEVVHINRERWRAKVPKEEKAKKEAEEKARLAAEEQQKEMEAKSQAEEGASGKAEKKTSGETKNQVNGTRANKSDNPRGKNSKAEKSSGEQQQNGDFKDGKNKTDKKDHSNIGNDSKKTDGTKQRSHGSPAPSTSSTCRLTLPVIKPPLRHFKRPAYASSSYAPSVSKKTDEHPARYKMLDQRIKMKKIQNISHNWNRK
measurementProtocol: biochemical
Format: biochemical
runParameters: 15 nM tritium labelled cAMP, 1 hr at room temperature, SPA beads
Rule: IC50 below 30 nM gives label 1. Equal to or above 30 nM gives label 0.

Example entries begin here.
chemSmiles	assayedTarget	label
CCOc1ncccc1-c1cc(NCc2ccn(C)c(=O)c2)c2c(n1)c(C)nn2C(C)C	PDE1C (Homo sapiens (Human), UniProt Q14123)	label 0
CCOc1ncccc1-c1cc(NCc2noc(C)n2)c2c(n1)c(C)nn2C(C)C	PDE1C (Homo sapiens (Human), UniProt Q14123)	label 1
CCOc1ncccc1-c1cc(NCc2ccc(C)s2)c2c(n1)c(C)nn2C(C)C	PDE1C (Homo sapiens (Human), UniProt Q14123)	label 0
COc1ncccc1CNc1cc(-c2ccnn2C)nc2c(C)nn(C(C)C)c12	PDE1C (Homo sapiens (Human), UniProt Q14123)	label 0
CCOc1ncccc1-c1cc(NCc2ncccn2)c2c(n1)c(C)nn2C(C)C	PDE1C (Homo sapiens (Human), UniProt Q14123)	label 1
CCOc1ncccc1-c1cc(NCc2cnn(C)n2)c2c(n1)c(C)nn2C(C)C	PDE1C (Homo sapiens (Human), UniProt Q14123)	label 1

Strictly below 30 nM in IC50? CCOc1ncccc1-c1cc(NCc2ccccc2C(F)(F)F)c2c(n1)c(C)nn2C(C)C
label 0

# check: IC50 < 30 nM for CCOc1ncccc1-c1cc(NCc2cc(C)cs2)c2c(n1)c(C)nn2C(C)C
label 0

hey, is IC50 for CCOc1ncccc1-c1cc(NCc2cccnc2OC)c2c(n1)c(C)nn2C(C)C lower than 30 nM or not?
label 0

---

assayedTarget: UniProtKB Q14123
measurementProtocol: biochemical
Format: biochemical
runParameters: 15 nM tritium labelled cAMP, 1 hr at room temperature, SPA beads
pIC50: −log10 of the molar value.
Classification field: condition met = pIC50 at or over 7; condition not met = pIC50 under 7.

Sample answers from the record:
compound	label
Cc1nn(C(C)C)c2c(NCc3cnn(C)c3)cc(-c3ccc[nH]c3=O)nc12	condition not met
Cc1nocc1-c1cc(NCc2cnn(C)c2)c2c(n1)c(C)nn2C(C)C	condition met
CCOc1ncccc1-c1cc(NCc2cn(C)cn2)c2c(n1)c(C)nn2C(C)C [Example 58, 2,2,2-trifluoroacetate]	condition met
CCOc1ncccc1-c1cc(NCc2n[nH]c(C)n2)c2c(n1)c(C)nn2C(C)C	condition met

Is reported pIC50 greater than or equal to 7 here: CCOc1ncccc1-c1cc(NCc2ccnn2C)c2c(cnn2C(C)C)n1
condition not met

Please tell me: is the compound CCOc1ncccc1-c1cc(NCc2csc(C)c2)c2c(n1)c(C)nn2C(C)C at or over 7 in terms of pIC50?
condition met

---

For each entry below, report its pIC50 value.
assayedTarget: PDE1B (Homo sapiens (Human))
Sequence (Q01064 whole entry): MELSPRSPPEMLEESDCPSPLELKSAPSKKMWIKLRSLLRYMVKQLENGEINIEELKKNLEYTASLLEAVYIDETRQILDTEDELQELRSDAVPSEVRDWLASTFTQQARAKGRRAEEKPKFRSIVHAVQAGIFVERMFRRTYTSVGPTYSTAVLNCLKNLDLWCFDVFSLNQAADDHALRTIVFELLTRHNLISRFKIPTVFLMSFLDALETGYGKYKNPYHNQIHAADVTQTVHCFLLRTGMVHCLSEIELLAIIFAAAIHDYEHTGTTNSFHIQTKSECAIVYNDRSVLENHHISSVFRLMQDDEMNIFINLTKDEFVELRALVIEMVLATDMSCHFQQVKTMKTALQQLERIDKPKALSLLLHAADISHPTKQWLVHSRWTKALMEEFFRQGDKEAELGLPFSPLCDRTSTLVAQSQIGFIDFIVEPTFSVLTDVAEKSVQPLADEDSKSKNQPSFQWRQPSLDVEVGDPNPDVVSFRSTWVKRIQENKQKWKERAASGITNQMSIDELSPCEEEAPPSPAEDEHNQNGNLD
measurementProtocol: PDE1 inhibition assay (PDE1B)
Format: biochemical
runParameters: 15 nM tritium labelled cAMP, 1 hr at room temperature, SPA beads; read-out: PDE1B, IC50
One number for each entry, as −log10 of the molar value.

A selection of reference data follows.
molecule	pIC50
CCOc1ncccc1-c1cc(NCc2ncn(C)n2)c2c(cnn2C(C)C)n1	9.00
CCOc1ncccc1-c1cc(NCc2nc(C)co2)c2c(n1)c(C)nn2C(C)C [Example 50, 2,2,2-trifluoroacetate]	9.30
CCOc1ncccc1-c1cc(NCc2ccn(C)c(=O)c2)c2c(n1)c(C)nn2C(C)C	8.49

Please turn your attention to the following entry.
Endpoint output: pIC50 of CCOc1ncccc1-c1cc(NCc2cc(CF)on2)c2c(n1)c(C)nn2C(C)C . Value?
9.80

This collection of values is drawn from patent US10034861B2.
